- System: PolyAU double stranded RNA
- METHOD: Fluorescence intercalator displacement (FID) assay, SYBR-safe probe
- MEASUREMENT CONDITIONS: 20 μM compound, 30° C., lower % = stronger binding
READOUT: % Normalised Fluorescence with polyAU RNA

// known answers, use as guide
1) [H]/N=C(\CCNC(=O)c1cc(NC(=O)c2cc(NC(=O)c3ccc(C=Cc4ccc5nonc5c4)cc3)cn2C)cn1C)NCCC1CCOCC1 [Ia45]; 3%
2) CONC(=N)CCNC(=O)c1cc(NC(=O)c2cc(NC(=O)c3ccc(/C=C/c4cnc5ccccc5c4)cc3)cn2C)cn1C [Ia28]; 66%
3) CCNC(=N)CCNC(=O)c1cc(NC(=O)c2cc(NC(=O)c3ccc(/C=C/c4cccc(OC)c4)cc3)cn2C)cn1C [Ia22]; 5%
4) CCCCNC(=N)CCNC(=O)c1cc(NC(=O)c2cc(NC(=O)c3ccc(/C=C/c4cnc5ccccc5c4)cc3)cn2C)cn1C [Ia34]; 6%
5) [H]/N=C(\CCNC(=O)c1cc(NC(=O)c2cc(NC(=O)c3ccc(C=Cc4ccc5nonc5c4)cc3)cn2C)cn1C)N1CCSCC1 [Ib8]; 4%

input: For PolyAU double stranded RNA, give % Normalised Fluorescence with polyAU RNA of the listed compound: CN(C)CCCN(CCCN(C)C)C(=O)c1cc(NC(=O)c2cc(NC(=O)c3ccc(/C=C/c4cnc5ccccc5c4)cc3)cn2C)cn1C [IVa9]
output: 4%

input: For PolyAU double stranded RNA, give % Normalised Fluorescence with polyAU RNA of the listed compound: Cn1cc(NC(=O)c2cc(NC(=O)c3ccc(/C=C/c4cnc5ccccc5c4)cc3)cn2C)cc1C(=O)NCCCCN1CCCC1 [IVa12]
output: 71%
